- Test system: Bacillus subtilis
- Protocol: cleaved RNA product abundance (RNA/gDNA barcode ratio) relative to median wild-type variant (ratio to wild type); higher = more accumulation of the downstream cleavage product
- Experimental parameters: experiment (reporter, strain, medium): exp 4a: truncated aprE reporter, strain BJT201 with 2% xylose (RNase J1 expressed); cleavage site: cggR-gapA (positions -7 to +36 mutated)
Binary classification by cleaved RNA product abundance, with 0.08 as an inclusive lower bound for YES; all other cases are NO.

Observe how each entry below is paired with its result.
- Biosequence: "ACAGACGAAGGAGCCGCAAAGAATTTATTAAGGGATGAATAATCCCTCAATATACATATCTCTCACTTATTTAAA"
  Assigned label: "YES"
- Biosequence: "ACAGACGAAGGAGCCGCAAAGAAGTTATTAAGGGATGAATAATCCCTCAATATATAAATCTCTCACTTATTTAAA"
  Assigned label: "YES"
- Biosequence: "ACAGACGAAGGAGCCGCAAAGAATTTATTAAGGGATGAATAATCCCTCAATATAAGTATCTCTCACTTATTTAAA"
  Assigned label: "YES"
- Biosequence: "ACAGACGAAGGAGCCGCAAAGAAGTTATTAAGGCATGAATAATCCGTCAATATAAATATCTCTCACTTATTTAAA"
  Assigned label: "NO"

Would you kindly look at the next entry?
Determine whether measured cleaved RNA product abundance meets or exceeds 0.08 for `ACAGACGAAGGAGCCGCAAAGAAGTTATTAAGGGATGAATAATCCCGCAATATATATATCTCTCACTTATTTAAA`
YES

---

- System: Bacillus subtilis
- Protocol: cleaved RNA product abundance (RNA/gDNA barcode ratio) relative to median wild-type variant (ratio to wild type); higher = more accumulation of the downstream cleavage product
- Experimental parameters: experiment (reporter, strain, medium): exp 4a: truncated aprE reporter, strain BJT201 with 2% xylose (RNase J1 expressed); cleavage site: cggR-gapA (positions -7 to +36 mutated)
Recorded cleaved RNA product abundance values for a group of sequences are listed next.

Report cleaved RNA product abundance for `ACAGACGAAGGAGCCGCAAAGAAGTTATTAAGTGATGAATAATCCCTAAATATAAATATCTCTCACTTATTTAAA` tested on Bacillus subtilis.
0.146

Hello, I am looking for reported cleaved RNA product abundance with Bacillus subtilis for `ACAGACGAAGGAGCCGCAAAGACGTTATTAAGGGATGAATAATTCCTCAATATAAATATCTCTCACTTATTTAAA` . Could you help?
0.944

For the record `ACAGACGAAGGAGCCGCAAAGAAGTTATTAAGGAATGAATAATACCTCAATATAAATATCTCTCACTTATTTAAA` , what value of cleaved RNA product abundance is listed for Bacillus subtilis?
0.124

Quick check: cleaved RNA product abundance on Bacillus subtilis, item `ACAGACGAAGGAGCCGCAAAGAAGTTATTAAGGGATGAATAATCCCTCAATATAAAAATGTCTCACTTATTTAAA` ?
1.17

Return cleaved RNA product abundance measured with Bacillus subtilis given this sequence: `ACAGACGAAGGAGCCGCAAAGAAGTTATTAAGGGGTGAATAATCCCTCAATATAAATATCTCTCACTTATTTAAA`
0.741

Notebook: pull reported cleaved RNA product abundance for Bacillus subtilis, entry `ACAGACGAAGGAGCCGCAAAGAAGTTATTAAGGGATTATTAATCCCTCAATATAAATATCTCTCACTTATTTAAA`
1.09

Write down the reported cleaved RNA product abundance of `ACAGACGAAGGAGCCGCAAAGAAGTTATTAAGGCATGAATAATTCCTCAATATAAATATCTCTCACTTATTTAAA` , test system: Bacillus subtilis.
0.133

The measurements presented in this section are drawn from the supplement of paper PMC11780869.
